Cited source: PubChem BioAssay

# test-protocol: growth inhibition, single agents and combos, CRL2098, cell-based, BGB or cisplatin IC20 combos, synergistic combos for chromothripsis tumors (AID 1671454);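 note: cells exposed for 96 h before readout; 0% = vehicle DMSO and 100% = killing by high DMSO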
# applied-conditions: CRL2098 osteosarcoma cells, drug combinations, at 0.5 µM
Active and inactive are the calls of the source. Cut-off read from the data, not from the text of the source: active = inhibition above about 80%; inactive = the rest.
Outcome codes: t for active, f for inactive

{"compound": "O=C(CCSc1nc2ccccc2c(=O)[nH]1)NC1CCC(c2nnc(-c3ccccc3)o2)CC1 (stereo unspecified)", "cat": "f"}
{"compound": "COc1ccccc1S(=O)(=O)Nc1ccc2c(c1)CN(C)C(=O)N2", "cat": "f"}
{"compound": "C[C@@H]1COCCN1c1cc(C2(S(C)(=O)=O)CC2)nc(-c2cccc3[nH]ccc23)n1", "cat": "f"}
{"compound": "CC1OC(n2cc(F)c(=O)[nH]c2=O)C(O)C1O (stereo unspecified)", "cat": "f"}
{"compound": "CN(C)C(=S)NN=C(c1ccccn1)c1ccccn1", "cat": "t"}
{"compound": "CCC(C)C(=O)OC1CC(C)C=C2C=CC(C)C(CCC3CC(O)CC(=O)O3)C21 (stereo unspecified)", "cat": "f"}
{"compound": "NC(=S)NN=Cc1ncccc1N", "cat": "f"}
{"compound": "NC(=O)c1ncn(C2OC(CO)C(O)C2O)c1O (stereo unspecified)", "cat": "f"}
{"compound": "Cc1ccc(NC(=O)CCCCCC(=O)Nc2ccccc2N)cc1", "cat": "f"}
{"compound": "O=C1C(=Cc2cccnc2)C(=O)c2ccccc21", "cat": "f"}
{"compound": "Nc1ccccc1NC(=O)c1cnccn1", "cat": "f"}
{"compound": "Cc1cn(C2CC(O)C(COP(=O)(O)OP(=O)(O)OP(=O)(O)O)O2)c(=O)[nH]c1=O (stereo unspecified)", "cat": "f"}
{"compound": "CC(C)C(=O)SCCCCCCC(=O)Nc1nc(-c2ccccc2)cs1", "cat": "f"}
{"compound": "CC1CN(c2c(F)c(N)c3c(=O)c(C(=O)O)cn(C4CC4)c3c2F)CC(C)N1 (stereo unspecified)", "cat": "f"}
{"compound": "CC(C)c1ccc(-c2cc(=O)c3ccccc3o2)cc1", "cat": "f"}
{"compound": "C[n+]1ccc(-c2c3nc(c(-c4cc[n+](C)cc4)c4ccc([nH]4)c(-c4cc[n+](C)cc4)c4nc(c(-c5cc[n+](C)cc5)c5ccc2[nH]5)C=C4)C=C3)cc1", "cat": "f"}

----------
# test-protocol: MELAS cybrid and Rieske KO viability enhancers – cell-based, MELAS cybrids, Rieske KO mouse fibroblasts, CellTiter-Glo, primary screen (AID 1508586);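 note: z relative to plate mean and SD of compound and empty wells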
# applied-conditions: MELAS cybrid survival, low glucose, CellTiter-Glo 48 h; stronger effect = higher value
property-label: z-score

{"compound": "COc1ccc(C2CC(=O)c3c(O)cc(O)cc3O2)cc1O (stereo not drawn)", "measured": -0.233}
{"compound": "CCSc1ccc2c(c1)N(CCCN1CCN(C)CC1)c1ccccc1S2", "measured": -1.53}
{"compound": "O=C(O)c1sccc1S(=O)(=O)Nc1ccc(Cl)cc1", "measured": -0.651}

----------
// z-score lookup, one value per entry
# test-protocol: MELAS cybrid and Rieske KO viability enhancers – cell-based, MELAS cybrids, Rieske KO mouse fibroblasts, CellTiter-Glo, primary screen (AID 1508586);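 note: z relative to plate mean and SD of compound and empty wells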
# applied-conditions: MELAS cybrid survival, low glucose, CellTiter-Glo 48 h; stronger effect = higher value
property-label: z-score

{"molecule": "C=C1CC[C@H]2[C@@](C)(CCC(O)[C@@]2(C)CO)C1CC=C1C(=O)OCC1O (stereo not given in full)", "measured": -0.657}
{"molecule": "O=C(O)c1ccc(C=C2SC(=S)N(c3cccc(C(F)(F)F)c3)C2=O)cc1", "measured": -0.207}
{"molecule": "CC1(C)CC(Nc2nccc(-c3cnn(-c4ccccc4)c3)n2)CC(C)(C)N1", "measured": -0.228}
{"molecule": "CC1CC(=O)NN=C1c1ccc(NN=C(C#N)C#N)cc1 (stereo not given)", "measured": -0.305}
{"molecule": "Cc1cc(OCCCS(C)(=O)=O)cc(C)c1-c1cccc(COc2ccc3c(c2)OCC3CC(=O)O)c1 (stereo not given)", "measured": -0.428}

----------
# test-protocol: viability loss with induced miR-34 in A549 – imaging, A549 dox-inducible miR-34, nuclei and caspase counts, primary screen (AID 1347080)
# applied-conditions: A549 miR-34 inducible, Hoechst nuclei count, 48 h; stronger effect = lower value; cell number ratio, induced over uninduced
Activity calls are given as the source filed them.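 Rule for the calls: active = compounds whose cell count with miR-34 switched on is under 0.7 times the count with it off; inactive = the rest.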

{"compound": "CC(C)(C)NC[C@@H](O)COc1cccc2c1CCCC2=O", "fold change": "0.911 (inactive)"}
{"compound": "NC(N)=NC(N)=Nc1cc(C(F)(F)F)ccc1Cl", "fold change": "0.901 (inactive)"}
{"compound": "O=C(O)CC1CCCc2ccccc2C1O (stereo unspecified)", "fold change": "1.02 (inactive)"}
{"compound": "O=C(O)C1(O)C[C@H](O)C(O)[C@@H](O)C1 (stereo partly specified)", "fold change": "0.922 (inactive)"}
{"compound": "COc1ccc2c3c([nH]c2c1)[C@H]1C[C@H]2[C@H](C[C@@H](O)[C@H](OC)[C@H]2C(=O)O)CN1CC3", "fold change": "0.96 (inactive)"}
{"compound": "Cc1nn(C)c(C)c1-c1ccnc(N2CCCC2c2nc(-c3cccnc3)no2)n1 (stereo unspecified)", "fold change": "0.869 (inactive)"}
{"compound": "COc1ccccc1S(=O)(=O)Nc1ccc2c(c1)CN(C)C(=O)N2", "fold change": "1.02 (inactive)"}
{"compound": "Nc1nc2c(ncn2C2OC(CO)C(O)C2O)c(=O)[nH]1 (stereo unspecified)", "fold change": "0.891 (inactive)"}
{"compound": "Cc1ccc(CNc2ncnc3ccc(-c4ccc(CO)o4)cc23)o1", "fold change": "0.916 (inactive)"}
{"compound": "Nc1ncnc2c1nc(Br)n2C1OC2COP(=O)(O)O[C@@H]2C1O (stereo partly specified)", "fold change": "0.962 (inactive)"}
{"compound": "c1cnc2c(c1)ccc1cccnc12", "fold change": "0.996 (inactive)"}

----------
# test-protocol: galactose survival enhancers in mitochondrial complex I cybrids – cell-based, galactose medium, ATP luminescence, primary screen (AID 1645843);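 note: positive z means more ATP and so rescue of galactose-driven cybrid death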
# applied-conditions: complex I mutant cybrid cells, 72 h, stronger effect = higher value

{"compound": "O=c1c2cccc(C(F)(F)F)c2ncn1Cc1ccc(Cl)s1", "z-score": -0.515}
{"compound": "Cc1nc2ccccc2nc1CN1CC(=O)N(C2CCCCC2)CC(OCc2cccnc2)C1 (stereo unspecified)", "z-score": -1.6}
{"compound": "C=CCn1nc(C(=O)N2CCCCCC2)c2c1CCC(NCc1cc(-c3ccccc3)on1)C2 (stereo unspecified)", "z-score": -1.62}
{"compound": "COc1ccccc1N1CCN(CCCNc2c(C)c(=O)n(C)c(=O)n2C)CC1", "z-score": 0.025}
{"compound": "CSCc1ccc(C(=O)Nc2cccc3cccnc23)o1", "z-score": 1.12}
{"compound": "O=Nc1ccc2oc(=O)ccc2c1", "z-score": -1.25}
{"compound": "CC(c1cccc(O)c1)N(C)C (stereo unspecified)", "z-score": 0.205}
{"compound": "c1ccc(-c2nc3c(cnn3C3CCCCC3)[nH]2)c(Cn2cccn2)c1", "z-score": 0.525}
{"compound": "Nc1nc(-c2ccoc2)c2[nH]cnc2n1", "z-score": -0.485}
{"compound": "OC[C@H]1O[C@@H](n2cnc3cncnc32)[C@H](O)[C@@H]1O", "z-score": -0.28}
{"compound": "Cc1nn(C)c(C)c1-c1ccnc(NCCc2nc(-c3ccccn3)no2)n1", "z-score": -0.395}
{"compound": "CC(=O)O[C@H]1Cc2ccccc2N(C(N)=O)c2ccccc21", "z-score": 0.61}
{"compound": "Cc1ccc(-c2cc(C(=O)N3CCSCC3)cc(S(=O)(=O)N3CCOCC3)c2)s1", "z-score": 0.905}
{"compound": "Cc1cc(-c2cc3c(n(C)c2=O)CCN(Cc2ccc(Sc4nncn4C)o2)C3)ccc1F", "z-score": 0.445}
{"compound": "CCCCC#Cc1nc(NC)c2ncn([C@@H]3O[C@H](CO)C(O)[C@@H]3O)c2n1 (stereo partly specified)", "z-score": 0.245}
{"compound": "FC(F)(F)c1cccc(Cc2noc(CCCN3CCCCC3)n2)c1", "z-score": 0.61}

----------
# test-protocol: viability loss with induced miR-34 in A549 – imaging, A549 dox-inducible miR-34, nuclei and caspase counts, primary screen (AID 1347080)
# applied-conditions: A549 miR-34 inducible, Hoechst nuclei count, 48 h; measured here: total cells with miR-34 induction; stronger effect = lower value
In plain terms, low cell count, meaning strictly below 8000, gives Y, and everything else gives N.

{"compound": "Cn1c(=O)ccc2ccccc21", "cat": "N"}
{"compound": "CCOC(=O)O[C@@]1(C(=O)OCCl)CC[C@H]2[C@@H]3CCC4=CC(=O)C=C[C@]4(C)[C@@H]3C(O)C[C@@]21C (some centres undefined)", "cat": "Y"}
{"compound": "O=c1[nH]cnc2sc3c(c12)CCCC3", "cat": "N"}
{"compound": "C[C@]12C=CC(=O)C=C1CC[C@H]1[C@@H]3CC(O)[C@@](O)(C(=O)CO)[C@@]3(C)CC(O)[C@]12F (some centres undefined)", "cat": "Y"}
{"compound": "CN1CCc2nc(C(=O)NC3CC(C(=O)N(C)C)CCC3NC(=O)C(=O)Nc3ccc(Cl)cn3)sc2C1 (centres undefined)", "cat": "N"}
{"compound": "O=C1c2ccccc2C(=O)c2c(NCCc3ccc(O)cc3)ccc(NCCc3ccc(O)cc3)c21", "cat": "Y"}
{"compound": "N#Cc1ccc2[nH]cc(CCCCN3CCN(c4ccc5oc(C(N)=O)cc5c4)CC3)c2c1", "cat": "Y"}
{"compound": "OCC1NCC(O)C(O)C1O (centres undefined)", "cat": "N"}
